- Target System: T1, hSEMA4D ECD-His (His-tagged human SEMA4D protein extracellular domain, Met22-Arg734) (human, UniProt Q92854 22-734)
- T1 construct: Expressed in CHO-S cells, purified on Ni column; also called protein immunogen; immunogen A; not shown: His tag of the pCP vector
- T1 sequence: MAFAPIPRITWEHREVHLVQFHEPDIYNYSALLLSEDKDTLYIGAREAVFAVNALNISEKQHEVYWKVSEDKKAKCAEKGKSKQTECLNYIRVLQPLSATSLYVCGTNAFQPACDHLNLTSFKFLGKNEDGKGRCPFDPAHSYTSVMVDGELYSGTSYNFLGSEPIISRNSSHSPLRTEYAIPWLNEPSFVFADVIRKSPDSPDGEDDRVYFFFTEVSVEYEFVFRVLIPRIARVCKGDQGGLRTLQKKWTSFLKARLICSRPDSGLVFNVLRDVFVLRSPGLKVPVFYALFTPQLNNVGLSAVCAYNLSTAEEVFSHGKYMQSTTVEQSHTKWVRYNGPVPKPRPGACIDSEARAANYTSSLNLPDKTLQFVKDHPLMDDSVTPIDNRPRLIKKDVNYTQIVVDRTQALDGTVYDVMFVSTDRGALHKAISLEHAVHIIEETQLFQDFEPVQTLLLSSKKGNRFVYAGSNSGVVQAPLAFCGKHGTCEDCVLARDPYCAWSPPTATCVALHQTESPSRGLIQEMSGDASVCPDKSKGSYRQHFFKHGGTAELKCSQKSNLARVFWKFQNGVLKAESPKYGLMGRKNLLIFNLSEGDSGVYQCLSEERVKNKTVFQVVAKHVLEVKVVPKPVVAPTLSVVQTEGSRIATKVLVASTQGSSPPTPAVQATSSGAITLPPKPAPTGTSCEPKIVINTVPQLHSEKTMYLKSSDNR
- Assay Protocol: ELISA, coated hSEMA4D ECD-His; Ab 0.0533 nM
Below, each entry is listed alongside its reported OD450 nm.

[
  {
    "Binder": "38H2E3 (antibody, V domains shown, Mouse monoclonal antibody purified from hybridoma supernatant on protein A) VH: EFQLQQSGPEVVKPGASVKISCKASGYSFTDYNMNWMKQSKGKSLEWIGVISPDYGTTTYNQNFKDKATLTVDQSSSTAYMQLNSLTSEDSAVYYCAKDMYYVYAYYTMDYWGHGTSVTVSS VL: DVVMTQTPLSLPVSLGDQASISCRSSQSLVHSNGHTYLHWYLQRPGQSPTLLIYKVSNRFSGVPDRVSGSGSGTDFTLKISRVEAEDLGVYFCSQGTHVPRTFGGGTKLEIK",
    "OD450 nm": 0.194
  },
  {
    "Binder": "31G10C5 (antibody, V domains shown, Mouse monoclonal antibody purified from hybridoma supernatant on protein A) VH: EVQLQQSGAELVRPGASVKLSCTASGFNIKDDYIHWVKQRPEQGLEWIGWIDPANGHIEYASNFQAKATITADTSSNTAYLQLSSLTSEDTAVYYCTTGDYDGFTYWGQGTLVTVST VL: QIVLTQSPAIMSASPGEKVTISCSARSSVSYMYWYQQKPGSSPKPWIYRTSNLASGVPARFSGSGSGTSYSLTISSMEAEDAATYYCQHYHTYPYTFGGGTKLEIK",
    "OD450 nm": 0.526
  },
  {
    "Binder": "32C8F10 (antibody, V domains shown, Mouse monoclonal antibody purified from hybridoma supernatant on protein A) VH: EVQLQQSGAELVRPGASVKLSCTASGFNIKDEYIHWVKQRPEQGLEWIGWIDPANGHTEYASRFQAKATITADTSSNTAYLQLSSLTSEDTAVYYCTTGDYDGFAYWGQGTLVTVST VL: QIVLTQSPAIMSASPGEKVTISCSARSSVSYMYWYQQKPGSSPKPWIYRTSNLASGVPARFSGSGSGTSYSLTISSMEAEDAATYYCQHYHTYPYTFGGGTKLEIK",
    "OD450 nm": 0.551
  },
  {
    "Binder": "42B7G2 (antibody, V domains shown, Mouse monoclonal antibody purified from hybridoma supernatant on protein A) VH: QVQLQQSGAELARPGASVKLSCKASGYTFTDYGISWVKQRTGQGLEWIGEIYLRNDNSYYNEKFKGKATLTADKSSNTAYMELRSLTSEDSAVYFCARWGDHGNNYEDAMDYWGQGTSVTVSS VL: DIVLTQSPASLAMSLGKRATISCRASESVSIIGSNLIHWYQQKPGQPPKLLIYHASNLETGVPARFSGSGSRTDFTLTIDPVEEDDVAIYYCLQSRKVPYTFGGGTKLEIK",
    "OD450 nm": 0.696
  }
]
